assay.system: recombinant BRD4 (BD1 + BD2) (Homo sapiens, UniProt O60885)
Construct: employing a recombinant BRD4 (BD1 + BD2) and its corresponding ligand
procedure.text: BRD4 TR-FRET activity assay
Format: binding
cond: 1 μmol/L; read-out: BRD4 inhibition rate
Documented inhibition at 1 µM across a set of molecules
observation.type: inhibition at 1 µM (%)

* Cc1noc(C)c1-c1cc(Cc2n[nH]c(=O)c3ccccc23)cc(C(=O)NC2CCCC2)c1 | 67
* Cc1noc(C)c1-c1cc(Cc2n[nH]c(=O)c3ccccc23)cc(C(=O)N2CCOCC2)c1 | 71
* Cc1noc(C)c1-c1cc(Cc2n[nH]c(=O)c3ccccc23)cc(NS(=O)(=O)c2ccc3c(c2)CCO3)c1 | 42
* Cc1noc(C)c1-c1cc(Cc2n[nH]c(=O)c3ccccc23)cc(NS(=O)(=O)c2cccc(C(F)(F)F)c2)c1 | 20

----------
observation.type: melting point

• COc1cccc(S(=O)(=O)Nc2cc(Cc3n[nH]c(=O)c4ccccc34)cc(-c3c(C)noc3C)c2)c1 [DDT68] = 184 to 185 °C
• CCCc1ccc(S(=O)(=O)Nc2cc(Cc3n[nH]c(=O)c4ccccc34)cc(-c3c(C)noc3C)c2)cc1 [DDT63] = 148 to 149 °C
• Cc1cccc(CS(=O)(=O)Nc2cc(Cc3n[nH]c(=O)c4ccccc34)cc(-c3c(C)noc3C)c2)c1 [DDT77] = 154 to 155 °C
• Cc1noc(C)c1-c1cc(Cc2n[nH]c(=O)c3ccccc23)cc(NS(=O)(=O)c2cccc(Br)c2)c1 [DDT92] = 147 to 148 °C
• Cc1noc(C)c1-c1cc(Cc2n[nH]c(=O)c3ccccc23)cc(NCc2ccc(C(F)(F)F)cc2)c1 [DDT46] = 220 to 221 °C
• Cc1noc(C)c1-c1cc(Cc2n[nH]c(=O)c3ccccc23)cc(C(=O)N2CCC(O)CC2)c1 [DDT21] = 176 to 177 °C
• Cc1noc(C)c1-c1cc(Cc2n[nH]c(=O)c3ccccc23)cc(NS(=O)(=O)c2ccc3c(c2)CCO3)c1 [DDT75] = 162 to 163 °C

----------
Quick list: inhibition at 1 µM per entry.
assay.system: recombinant BRD4 (BD1 + BD2) (Homo sapiens, UniProt O60885)
Construct: employing a recombinant BRD4 (BD1 + BD2) and its corresponding ligand
procedure.text: BRD4 TR-FRET activity assay;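 note: signal rises with BET ligand binding to the bromodomains, so inhibitors lower it, 120 min incubation at room temperature, 1% DMSO, wells lacking ligand as negative control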
Type: binding
cond: 1 μmol/L; read-out: BRD4 inhibition rate
observation.type: inhibition at 1 µM

* Cc1noc(C)c1-c1cc(Cc2n[nH]c(=O)c3ccccc23)cc(NS(=O)(=O)Cc2ccccc2)c1 [DDT76] | 50%
* CCCCS(=O)(=O)Nc1cc(Cc2n[nH]c(=O)c3ccccc23)cc(-c2c(C)noc2C)c1 [DDT52] | 6%
* Cc1noc(C)c1-c1cc(Cc2n[nH]c(=O)c3ccccc23)cc(NCc2ccc([N+](=O)[O-])cc2)c1 [DDT37] | 8%
* Cc1noc(C)c1-c1cc(Cc2n[nH]c(=O)c3ccccc23)cc(NS(=O)(=O)c2cccc(Cl)c2)c1 [DDT88] | 17%

----------
// values below are reported melting point
observation.type: melting point

* COc1ccc(S(=O)(=O)Nc2cc(Cc3n[nH]c(=O)c4ccccc34)cc(-c3c(C)noc3C)c2)cc1 | 155 to 156 °C
* CC(=O)Nc1cccc(S(=O)(=O)Nc2cc(Cc3n[nH]c(=O)c4ccccc34)cc(-c3c(C)noc3C)c2)c1 | 192 to 193 °C
* Cc1noc(C)c1-c1cc(Cc2n[nH]c(=O)c3ccccc23)cc(NCc2cccc(Br)c2)c1 | 235 to 236 °C
* Cc1noc(C)c1-c1cc(Cc2n[nH]c(=O)c3ccccc23)cc(NCc2cccc(Cl)c2)c1 | 235 to 236 °C
* Cc1noc(C)c1-c1cc(Cc2n[nH]c(=O)c3ccccc23)cc(NC(=O)c2ccccc2)c1 | 173 to 174 °C
* Cc1noc(C)c1-c1cc(Cc2n[nH]c(=O)c3ccccc23)cc(NCc2cccc([N+](=O)[O-])c2)c1 | 229 to 230 °C
* Cc1noc(C)c1-c1cc(Cc2n[nH]c(=O)c3ccccc23)cc(C(=O)N2CCC(=O)C2)c1 | 241 to 243 °C
* Cc1noc(C)c1-c1cc(Cc2n[nH]c(=O)c3ccccc23)cc(NS(=O)(=O)c2cccc(Cl)c2)c1 | 142 to 143 °C

This collection of values is drawn from paper PMC10720709.
